- target system: T1, rhTyro-3 (human, UniProt Q06418 41-429)
- T1 construct: extracellular domain
- T1 sequence (looked up): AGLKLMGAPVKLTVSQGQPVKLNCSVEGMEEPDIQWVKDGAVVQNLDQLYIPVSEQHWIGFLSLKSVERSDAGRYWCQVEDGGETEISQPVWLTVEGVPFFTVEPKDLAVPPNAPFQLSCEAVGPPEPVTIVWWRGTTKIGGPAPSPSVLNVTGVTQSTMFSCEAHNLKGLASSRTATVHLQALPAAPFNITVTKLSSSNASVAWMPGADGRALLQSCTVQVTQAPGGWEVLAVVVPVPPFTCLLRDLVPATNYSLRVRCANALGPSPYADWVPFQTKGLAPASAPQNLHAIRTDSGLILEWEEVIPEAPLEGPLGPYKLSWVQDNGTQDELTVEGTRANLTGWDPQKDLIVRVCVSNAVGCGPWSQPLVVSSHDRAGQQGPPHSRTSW
- assay protocol: ELISA, antigen coated at 5 µg/ml, mAb 10 µg/ml
Some binders, each annotated with its measured OD405 nm.
State the answer as a number, implicitly in OD405.

Solved cases (4 shown):
{"binder": "F107-8D12 (antibody, V domains shown, also called F107-8D12-2; mAb 8D12) VH: QVQLQQPGAELVKPGASVQLSCKASGYTFISFWINWVKQRPGQGLEWMGNIFPGSSSTNYNEKFKSKATLTVDKSSSTAYMQLSSLTSEDSAVYFCARDYYGGSPDYWGQGTTLTVSS VL: DIVMSQSPSSLAVSAGERVTMSCKSSQSLLNTRTRKNYLAWYQQKPGQSPKLLIYWASTRESGVPDRFTGSGSGTDFTLTISSVQAEDLAVYYCKQSYNLWTFGGGTKLEIK", "OD405 nm [OD405]": 0}
{"binder": "F111-3C8 (antibody, V domains shown, also called F111-3C8-2) VH: QVQLQQPGAELGKPGTSVKLSCKASGYTFTSYWMHWVKRVPGQGLEWIGNINPNSTSADYNEKFKRKATLTVDKSSSTAYMQLSTLTSEDSAVYYCTRPLMGPYWYFDVWGTGTTVTVSS VL: QIVLTQSPAIMSASPGEKVTISCSASSSVSYMYWYQQKPGSSPKPWIYRTSNLASGVPARFSGSGSGTSYSLTISSMEAEDAATYYCQQYHNYPPTFGGGTKLEIK", "OD405 nm [OD405]": 0}
{"binder": "F107-10G1 (antibody, V domains shown, also called F107-10G1-3) VH: EVNLVESGGGVVKPGASLKLSCEASGFTFSNYGMSWVRQTSDKRLEWVASISGGGGRTYYLDNVKGRFIISRENAKNTLYLQMSSLKSEDTALFYCARGARASYFAMDYWGQGSSVTVSS VL: VIVMTQSHKFMSTSVGDRVSITCKASQDVTTAVAWYQQKPGQSPKLLIYWASTRHTGVPDRFTGSGSGTDYSLTISNVQTEDLAFYYCQQHFTTPLTFGAGTKLELK", "OD405 nm [OD405]": 0}
{"binder": "F111-5E9 (antibody, V domains shown, also called F111-5E9-2; mAb 5E9) VH: QIQLVQSGPELKKPGETVKISCKASGYTFTKYGMNWVKQAPGKGLKWMGWINTYTGEPTYADDFKGRFAFSLETSASTAYLQINNLTTEDMVTYFCAKGGYYSNPIYPMDYWGQGTSVTVSS VL: DIQMTQTTSSLSASLGDRVTISCRASQDINNYLNWYQQKPDGTVKLLIYYISRLHSGVPSRFSGSGSGTDYSLTISNLELEDVATYFCQQGNTLPFTFGSGTKLEIK", "OD405 nm [OD405]": 0}

Moving on to another binder below.
Task item: Returns the measured OD405 nm for the input binder. Input: F107-7H5 (antibody, V domains shown, also called F107-7H5-2; mAb 7H5) VH: QVQLQQPGAELVKPGASVKLSCKASGYTFTSYWINWVKQRPGQGLEWIGNIYPDSSSTNYNEKFKSKATLTVDKSSTTAYIQFSSLTSEDSAVYYCTRDTYGGSPDYWGQGTTLTVSS VL: DIVMSQSPSSLAVSAGEKVTMSCKSSQSLLNSRTRKIYLAWYQQKPGQSPKLLIYWASTRQSGVPDRFTGSGSGTDFTLTISSVQAEDLAVYYCKQSYNLWTFGGGTKLEIK
Reply: 0

Provenance of the data: patent US20240076389A1
